Recorded Anti-CD28 Fab signal in the presence of CD28 (phage binding ELISA) values for a group of binders are listed next.
systemTested: Anti-CD28 Fab (SEQ ID NOs: 696, 697)
Sequence (VH, as listed by the source, chain 1 of 2): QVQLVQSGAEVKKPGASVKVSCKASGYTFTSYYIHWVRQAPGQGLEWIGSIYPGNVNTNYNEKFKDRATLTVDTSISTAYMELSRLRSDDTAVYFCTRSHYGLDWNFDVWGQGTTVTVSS
Sequence (VL, as listed by the source, chain 2 of 2): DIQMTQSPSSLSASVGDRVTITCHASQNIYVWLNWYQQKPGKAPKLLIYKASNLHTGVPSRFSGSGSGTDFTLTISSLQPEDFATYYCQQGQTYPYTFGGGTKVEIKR
procedureDetails: phage binding ELISA; anti-CD28 Fab on plate pre-incubated with CD28 antigen as competitor, anti-M13 HRP detection
No unit in the answer, only the number.

{"binder": "YCEGHAAEYMSKCL [Phage-789]", "valueReported": 0.07}
{"binder": "YCDGHSAAYIMKCL [Phage-792]", "valueReported": 0.09}
{"binder": "YCDGHSWAYMWKCL [Phage-791]", "valueReported": 0.13}

INPUT: Value lookup for Anti-CD28 Fab signal in the presence of CD28 (phage binding ELISA); key = YCAGHLPEYLSKCL [Phage-795]
OUTPUT: 0.07

INPUT: Value lookup for Anti-CD28 Fab signal in the presence of CD28 (phage binding ELISA); key = YCEGHSQEYMQKCL [Phage-794]
OUTPUT: 0.05

INPUT: Value lookup for Anti-CD28 Fab signal in the presence of CD28 (phage binding ELISA); key = YCEGHRPEYMAKCL [Phage-798]
OUTPUT: 0.07

INPUT: Value lookup for Anti-CD28 Fab signal in the presence of CD28 (phage binding ELISA); key = YCEGHLPEYMRKCL [Phage-799]
OUTPUT: 0.06
